Where these numbers come from: paper PMC6272869

Experiment: Stability of the analytes in rat plasma under different storage conditions (QC samples)
Format: in vitro ADME
Conditions: rat, extracted plasma QC samples in auto-sampler, 4 °C for 24 h, low QC concentration, n = 3
Experimental: The stability of the seven compounds in rat plasma was assessed by analyzing the QC samples at three concentrations under different sample storage conditions and processing procedures. Short-term stability was assessed by analyzing the QC samples that were kept at room temperature for 4 h, which exceeded the routine sample preparation time. […] Post-preparation stability was assessed by analyzing the extracted QC samples that were kept in the auto-sampler at 4 °C for 12 h. […]

compound	measure-unit	remaining at 24 h
COc1ccc(-c2coc3cc(O[C@@H]4O[C@H](CO)[C@@H](O)[C@H](O)[C@H]4O)ccc3c2=O)cc1O [Calycosin-7-glucoside, calycosin-7-glucoside]	%	104
